Below, each entry is listed alongside its reported PBM binding z-score.
# Test system: THRa:RXRa (NR concentration 90 nM, RXRa partner concentration 90 nM)
# Experiment Summary: PBM binding z-score (relative to random genomic background probes); higher = stronger binding; sequences stand for … in GC…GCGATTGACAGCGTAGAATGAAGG
Experimental Endpoint: PBM binding z-score

INSERT INTO assay_data (residue_sequence, number) VALUES
  ('ATCTAAAGGTCGAGGTGAGTATAGAGAAAGGGAA', 3.09),
  ('CCTACTGGGCCCCGAAAGGTCATTGATTCAGTGA', 3.04),
  ('TTTCGGAGGACACGAAGGTCAGAGCTTTCCAGAG', 3.06);
